# Target: T1, B7-H3, native protein on the cell surface of A498 and SK-MES-1 cells (UniProt Q5ZPR3 29-534, limits assumed)
# T1 sequence (looked up): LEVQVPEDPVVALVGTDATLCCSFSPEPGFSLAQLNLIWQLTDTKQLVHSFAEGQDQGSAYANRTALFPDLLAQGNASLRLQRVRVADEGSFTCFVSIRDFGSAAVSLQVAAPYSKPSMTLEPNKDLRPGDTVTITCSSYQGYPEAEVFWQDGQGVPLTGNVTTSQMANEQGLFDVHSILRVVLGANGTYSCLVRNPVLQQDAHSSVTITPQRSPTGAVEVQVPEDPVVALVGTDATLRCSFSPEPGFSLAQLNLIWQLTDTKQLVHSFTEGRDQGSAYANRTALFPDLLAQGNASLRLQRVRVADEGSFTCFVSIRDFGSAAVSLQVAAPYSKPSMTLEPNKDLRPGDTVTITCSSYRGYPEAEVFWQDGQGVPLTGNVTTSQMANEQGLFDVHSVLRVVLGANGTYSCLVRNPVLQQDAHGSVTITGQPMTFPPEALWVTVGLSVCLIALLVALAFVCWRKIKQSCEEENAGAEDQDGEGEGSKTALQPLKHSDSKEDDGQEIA
# Method: cell-based or functional assay
Measured ADCC (reporter) EC50, A498 target cells, listed per entry.
Just the number in nM, nothing appended.

[[record]]
binder = "SCT-Da250 (antibody, V domains shown) VH: QGQMQQSGAELVKPGASVRLSCKTSGFTFSSFYISWLKQKPGQSLEWIAWIYAGPGYTSYNQKFTGKAQLTVDTSSSTAYMQFSSLTTEDSAIYYCARHVGRQRGYFDVWGAGTTVTVSS VL: DIVMTQSHKFMSTSVGDRVSITCKASQDVSTAVAWYQQKPGQSPKLLIYSASYRYTGVPDHFTVSGSGTDFTFTISSVQAEDLAVYYCQQHYSTPWTFGGGTKLEIK"
readout_type = "ADCC (reporter) EC50, A498 target cells"
quantity_unit = "nM"
readout_value = 2.4

[[record]]
binder = "SCT-Da192 (antibody, V domains shown) VH: EVQLQQSGPELVKPGASVKISCKTSGYTFTEYTMHWVKQSHGKSLEWIGVINPNNGGTTYNQKFKGKATLTVDKSSSTAYMELRSLTSEDSAVYYCARPHSLLRLRREFDYWGQGTTLTVSS VL: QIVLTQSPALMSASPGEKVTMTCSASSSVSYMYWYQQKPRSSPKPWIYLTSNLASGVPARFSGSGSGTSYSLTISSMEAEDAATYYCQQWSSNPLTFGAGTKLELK"
readout_type = "ADCC (reporter) EC50, A498 target cells"
quantity_unit = "nM"
readout_value = 1.1


## Task Would you mind telling me what ADCC (reporter) EC50, A498 target cells value was observed for SCT-Da182 (antibody, V domains shown) VH: EVQLQQSGPELVKPGASMKISCKVSGFSFTGYTMNWVKQSHGKNLEWIGLINTYNGGTFYNQKFKAKATLTVDKSSSTAHMELLSLTSEDSAVYYCARSPGRYSMDYWGQGTSVTVSS VL: DIVLTQSPASLAVSLGQRATISCKASQSVDYNGYSYLNWYQQKPGQPPKLLIYPASNLESGIPARFSGSGSGTDFTLNIHPVEEEDAATYYCQQSKEDPYTFGGGTKLEIK ?
## Result 4.5
